Assay: physchem
Settings: aqueous, pH 7.4
Description: Aqueous solubility of the compound at pH 7.4 by HPLC analysis
measurement.name: solubility (µM)

| smiles.data | cmp | numeric.value |
| --- | --- | --- |
| Cc1[nH]c2ccc(Cl)cc2c(=O)c1-c1ccccc1 | = | 5 |
| Cc1[nH]c2ccccc2c(=O)c1Br | > | 20 |
| C=C(CCCCC)c1c(C)[nH]c2cc(OC)c(Cl)cc2c1=O | = | 2 |
| Cc1[nH]c2cc(Cl)ccc2c(=O)c1Cc1ccccc1 | < | 2 |
| Cc1[nH]c2ccccc2c(=O)c1/C=C/c1cccc([N+](=O)[O-])c1 | < | 2 |
| COc1ccc2c(=O)c(Cc3ccccc3)c(C)n(C)c2c1 | > | 20 |
| Cc1[nH]c2c(Cl)cccc2c(=O)c1Cc1ccccc1 | = | 5 |
| COc1cc2[nH]c(C)c(/C=C/C(=O)OC(C)(C)C)c(=O)c2cc1Cl | = | 5 |
| COc1ccc2c(=O)c(Cc3ccccc3)c(C)[nH]c2c1 | = | 5 |
| COc1ccc2c(OC)c(Cc3ccccc3)c(C)nc2c1 | = | 2 |
| COc1cc2[nH]c(C)c(C(C)C)c(=O)c2cc1Cl | > | 20 |
| CCc1c(C)[nH]c2cc(OC)c(Br)cc2c1=O | = | 2 |
| Cc1c(Cc2ccccc2)c(=O)c2cc(Cl)ccc2n1C | = | 2 |
| COc1cc2[nH]c(C)cc(=O)c2cc1Cl | = | 2 |
| Cc1[nH]c2ccccc2c(=O)c1-c1ccccc1 | > | 20 |
| Cc1[nH]c2cc(Cl)cc(Cl)c2c(=O)c1-c1ccccc1 | = | 5 |
| COc1c(Cc2ccccc2)c(C)nc2ccc(Cl)cc12 | < | 2 |
| CCCCCCC/C=C/c1c(C)[nH]c2ccccc2c1=O | < | 2 |

###

solubility values, listed per item
Assay: physchem
Settings: aqueous, pH 7.4

| smiles.data | reading.unit | cmp | solubility |
| --- | --- | --- | --- |
| Cc1[nH]c2cccc(Cl)c2c(=O)c1-c1ccccc1 | µM | = | 10 |
| CCCCC#Cc1c(C)[nH]c2ccc(Cl)cc2c1=O | µM | = | 2 |
| CCc1c(C)[nH]c2cc(OC)c(F)cc2c1=O | µM | < | 2 |
| COc1ccc2[nH]c(C)c(Br)c(=O)c2c1 | µM | > | 20 |
| Cc1[nH]c2ccccc2c(=O)c1C1CCCCC1 | µM | = | 10 |
| Cc1[nH]c2c(Cl)cccc2c(=O)c1-c1ccccc1 | µM | = | 5 |
| COc1cccc2c(=O)c(Cc3ccccc3)c(C)[nH]c12 | µM | > | 20 |
| COc1cc2[nH]c(C)c(C3CCCCC3)c(=O)c2cc1Cl | µM | = | 5 |
| Cc1[nH]c2ccc(Br)cc2c(=O)c1Br | µM | > | 20 |
| Cc1[nH]c2ccc(Cl)cc2c(=O)c1Cc1ccccc1 | µM | < | 2 |
| CCCCCCCCCc1c(C)[nH]c2cc(OC)c(Cl)cc2c1=O | µM | < | 2 |
| Cc1[nH]c2cccc(Cl)c2c(=O)c1Cc1ccccc1 | µM | = | 2 |

###

Assay: in vitro
Conditions: mouse, J774 cells
Description: Cytotoxicity index, ratio of EC50 for mice (Mus musculus) J774 cells to EC50 for chloroquine, mefloquine, pyrimethamine and atovaquone-resistant Plasmodium falciparum TM90-C2B
Listed here are molecules together with their documented selectivity ratio.
measurement.name: selectivity ratio

| smiles.data | measurement.name | result |
| --- | --- | --- |
| Cc1[nH]c2cc(Cl)c(Cl)cc2c(=O)c1-c1ccccc1 | selectivity ratio | > 93.3 |
| Cc1ccc2[nH]c(C)c(Br)c(=O)c2c1 | selectivity ratio | 74.9 |
| Cc1[nH]c2ccccc2c(=O)c1C1CCCCC1 | selectivity ratio | > 18.6 |
| COc1ccc2[nH]c(C)c(Br)c(=O)c2c1 | selectivity ratio | > 32 |
| COc1cccc2c(=O)c(Cc3ccccc3)c(C)[nH]c12 | selectivity ratio | > 6.5 |
